B1: ZNF232 (parent)
chain: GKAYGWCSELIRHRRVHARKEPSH

variants of: B1; assay: protein stability index of a GFP-peptide fusion (GPS, HEK-293T) (PSI 1-6); higher = more stable; settings: c terminus: a fixed tail appended;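 also: lentivirally expressed fusions sorted by FACS into six bins by GFP to DsRed ratio, PSI derived from sequencing read proportions per bin multiplied by bin number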
metric-name: protein stability index
Output: the number by itself.

Enquiry: Please give measured protein stability index of the following entry: `H13I`
Return: 1.89

Enquiry: Please give measured protein stability index of the following entry: `R19N`
Return: 3.81

Enquiry: Please give measured protein stability index of the following entry: `I11V`
Return: 2.92

Enquiry: Please give measured protein stability index of the following entry: `G1A`
Return: 2.89

Enquiry: Please give measured protein stability index of the following entry: `R19D`
Return: 3.31

Enquiry: Please give measured protein stability index of the following entry: `S8I`
Return: 1.57

Enquiry: Please give measured protein stability index of the following entry: `A18V`
Return: 2.59

Enquiry: Please give measured protein stability index of the following entry: `S23V`
Return: 2.82

Enquiry: Please give measured protein stability index of the following entry: `R19C`
Return: 2.68

Enquiry: Please give measured protein stability index of the following entry: `E9G`
Return: 3.03

Enquiry: Please give measured protein stability index of the following entry: `W6I`
Return: 3.27

Enquiry: Please give measured protein stability index of the following entry: `P22M`
Return: 2.3

Enquiry: Please give measured protein stability index of the following entry: `R15G`
Return: 2.61

Enquiry: Please give measured protein stability index of the following entry: `R14E`
Return: 2.86

Enquiry: Please give measured protein stability index of the following entry: `K20T`
Return: 3.28

Enquiry: Please give measured protein stability index of the following entry: `V16L`
Return: 2.9

Enquiry: Please give measured protein stability index of the following entry: `R15W`
Return: 2.25

Enquiry: Please give measured protein stability index of the following entry: `I11P`
Return: 3.11

Enquiry: Please give measured protein stability index of the following entry: `R15V`
Return: 2.44

Enquiry: Please give measured protein stability index of the following entry: `S8L`
Return: 2.45

Enquiry: Please give measured protein stability index of the following entry: `W6P`
Return: 4.61

Enquiry: Please give measured protein stability index of the following entry: `I11R`
Return: 3.67
